Tested on: HCT-116 human colon carcinoma cells
RUN DESCRIPTION: Cytotoxicity (in vitro) MTS assay in HCT-116 human colon carcinoma cells
Assay type: cell-based
CONDITION CONTEXT: Homo sapiens, HCT-116, 72 h, read-out: IC50 HCT 116, HCT-116 cells, MTS assay, 72 hours at 37° C.; drug concentration required to inhibit cell proliferation to 50% of untreated control
Give measured pIC50 for each item. Keep answers brief.
Numbers only, as −log10 of the molar value.

Completed entries (count: 3):
CC(=O)O[C@H]1C(=O)[C@@]2(C)[C@H]([C@H](OC(=O)c3ccccc3)[C@]3(O)C[C@H](OC(=O)[C@H](O)[C@@H](NC(=O)c4ccccc4)c4ccccc4)C(C)=C1C3(C)C)[C@]1(OC(C)=O)CO[C@@H]1C[C@@H]2S [Compound 14a, 7-deoxy-7β-thiopaclitaxel]
7.87
COC(=O)/C=C\S[C@H]1C[C@H]2OC[C@@]2(OC(C)=O)[C@H]2[C@H](OC(=O)c3ccccc3)[C@]3(O)C[C@H](OC(=O)[C@H](O)[C@@H](NC(=O)c4ccccc4)c4ccccc4)C(C)=C([C@@H](OC(C)=O)C(=O)[C@]12C)C3(C)C [Compound 35a]
8.75
CC(=O)O[C@H]1C(=O)[C@]2(C)[C@@H](SCc3ccccn3)C[C@H]3OC[C@@]3(OC(C)=O)[C@H]2[C@H](OC(=O)c2ccccc2)[C@]2(O)C[C@H](OC(=O)[C@H](O)[C@@H](NC(=O)c3ccccc3)c3ccccc3)C(C)=C1C2(C)C [Compound 30a, 7-deoxy-7β-(thio-2-picolyl)-paclitaxel]
8.95

Let us move to another entry and its pIC50.
Q: Given the entry COC(=O)/C=C/S[C@H]1C[C@H]2OC[C@@]2(OC(C)=O)[C@H]2[C@H](OC(=O)c3ccccc3)[C@]3(O)C[C@H](OC(=O)[C@H](O)[C@@H](NC(=O)c4ccccc4)c4ccccc4)C(C)=C([C@@H](OC(C)=O)C(=O)[C@]12C)C3(C)C [Compound 34a] , report its measured pIC50.
Ans: 8.16
